Here's what we have: MIC numbers for S. pyogenes Cook.
result-type: MIC

| compound | value-observed |
| --- | --- |
| Nc1c(F)c(N2CCNCC2)cc2c1c(=O)c(C(=O)O)cn2C1CC1 | 0.2 µg/mL |
| O=C(O)c1cn(C2CC2)c2cc(N3CCNCC3)c(F)cc2c1=O [Compound A, reference compound] | 0.2 µg/mL |
| Nc1c(F)c(N2CCNCC2)c(F)c2c1c(=O)c(C(=O)O)cn2C1CC1 [Compound B, reference compound] | 0.2 µg/mL |
| C[C@@H]1CN(c2cc3c(c(N)c2F)c(=O)c(C(=O)O)cn3C2CC2)C[C@H](C)N1 | 0.39 µg/mL |

====

test-protocol: Urinary excretion in mice (thin-layer cup-plated method, Escherichia coli Kp indicator)
Format: in vivo
test-settings: mouse, urine, oral, 5 mg/kg, read-out: Urinary recovery for 24 hours
dose excreted at 24 h values by entry

| compound | dose excreted at 24 h |
| --- | --- |
| C[C@@H]1CN(c2cc3c(c(N)c2F)c(=O)c(C(=O)O)cn3C2CC2)C[C@H](C)N1 [Compound 2] | 8.33% |
| CC1CN(c2c(F)c(N)c3c(=O)c(C(=O)O)cn(C4CC4)c3c2F)CC(C)N1 (centres unmarked) [Compound C, reference compound] | 4.51% |
